assay: gradient 5% acetonitrile 3 min, to 50% in 2 min, to 85% in 15 min, held 3 min, 100 µL/min; details: column: Zorbax Extend-C18 2.1 x 50 mm; eluents: water / acetonitrile, 0.1% formic acid
ASSAY_METRIC: RP-LC retention time (s)

{"COMPOUND": "CC(=O)c1ccc(NC(=O)c2cccc(N3C(=O)NC4CC3(C)Oc3ccccc34)c2)cc1 (centres undefined)", "RP-LC retention time, s": 815}
{"COMPOUND": "Cc1ccc(Cl)cc1NC(=O)Cn1ncc2c(N3CCN(c4ccccn4)CC3)ncnc21", "RP-LC retention time, s": 630}
{"COMPOUND": "O=C(NCc1ccco1)c1cc(C2CC2)on1", "RP-LC retention time, s": 717}

I. CCc1nn2c(CNS(=O)(=O)c3cc(C)cc(C)c3)c(-c3ccccc3)nc2s1
II. CCc1nnc(-c2ccc(S(=O)(=O)N3CCN(C(C)C)CC3)o2)o1
### Prompt // task: argmin of RP-LC retention time over [ I , II ] Answer by stating the label of the chosen item.
### Response II
(II: 592 s, I: 941 s)

A. Cc1sc(-c2nc(-c3ccccc3)no2)cc1S(=O)(=O)N1CCN(c2ncccn2)CC1
B. Cc1cc(F)ccc1NC(=O)c1csc(-c2ccc(N3CCCC3)nc2)n1
### Prompt Please state the entry with greater RP-LC retention time among A and B . Let me know the label of the one you choose.
### Response A
(A: 1210 s, B: 768 s)

Cited source for all entries: the METLIN SMRT retention time set (Domingo-Almenara et al. 2019)
